Target under test: PRKX (human) (UniProt P51817)
Sequence (P51817 whole entry, looked up): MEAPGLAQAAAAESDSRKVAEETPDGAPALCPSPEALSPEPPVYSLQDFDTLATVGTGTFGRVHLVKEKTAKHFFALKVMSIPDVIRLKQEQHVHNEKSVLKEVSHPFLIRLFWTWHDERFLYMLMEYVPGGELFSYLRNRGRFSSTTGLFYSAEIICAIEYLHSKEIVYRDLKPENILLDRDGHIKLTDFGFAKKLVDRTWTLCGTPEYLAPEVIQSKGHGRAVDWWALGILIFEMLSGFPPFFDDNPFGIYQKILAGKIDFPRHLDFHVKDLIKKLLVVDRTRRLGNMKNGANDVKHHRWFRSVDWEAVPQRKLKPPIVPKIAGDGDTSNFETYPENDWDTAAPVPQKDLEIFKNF
Assay procedure: radiometric filter-binding kinase assay, Kinase HotSpot
Condition info: compound 0.5 µM; ATP 10 µM
Give residual activity for every item shown.
The response must be a number in % with no trailing unit.

Reported residual activity for PRKX (human) (UniProt P51817), given "FC(F)(F)c1ccc(/C=C/c2nc(COc3ccc(CCCCn4ccnn4)cc3)co2)cc1" ? 95.3

Reported residual activity for PRKX (human) (UniProt P51817), given "CCCCc1c(-c2ccc(O)cc2)[nH]c2nccnc12" ? 110

Reported residual activity for PRKX (human) (UniProt P51817), given "O=c1[nH]c2ccccc2n1C1CCN(Cc2ccc(-c3nc4cc5[nH]cnc5cc4nc3-c3ccccc3)cc2)CC1" ? 101

Reported residual activity for PRKX (human) (UniProt P51817), given "N#C/C(=C1/Nc2ccccc2S1)c1ccnc(NCCc2cccnc2)n1" ? 96.4

Reported residual activity for PRKX (human) (UniProt P51817), given "O=C1NC(=O)c2cc(Nc3ccc(F)cc3)c(Nc3ccc(F)cc3)cc21" ? 103

Reported residual activity for PRKX (human) (UniProt P51817), given "O=S(=O)(NCCNC/C=C/c1ccc(Br)cc1)c1cccc2cnccc12" ? -2.49

Reported residual activity for PRKX (human) (UniProt P51817), given "COc1cc2c(cc1OC)-c1[nH]nc(Nc3cccc(F)c3)c1C2" ? 103

Reported residual activity for PRKX (human) (UniProt P51817), given "N/C(=N\N=C/c1ccc(-c2cccc([N+](=O)[O-])c2)o1)N[N+](=O)[O-]" ? 97.8

Reported residual activity for PRKX (human) (UniProt P51817), given "CCc1nc(-c2ccc(OC)cc2)[nH]c1-c1ccncc1" ? 93.3

Reported residual activity for PRKX (human) (UniProt P51817), given "O=c1c2ccccc2[nH]c(=S)n1CCN1CCC(=C(c2ccc(F)cc2)c2ccc(F)cc2)CC1" ? 106

Reported residual activity for PRKX (human) (UniProt P51817), given "O=C(c1ccccc1)c1ccc(N2CCOCC2)cc1O" ? 109

Reported residual activity for PRKX (human) (UniProt P51817), given "N#Cc1c(NC(=O)c2cccc3ccccc23)sc2c1CCCC2" ? 103

Reported residual activity for PRKX (human) (UniProt P51817), given "COc1cc2c(N3CCN(C(=O)Nc4ccc(OC(C)C)cc4)CC3)ncnc2cc1OCCCN1CCCCC1" ? 108

Reported residual activity for PRKX (human) (UniProt P51817), given "N#CCCc1ccc2c(c1)-c1[nH]c3ccc([N+](=O)[O-])cc3c1CC(=O)N2" ? 78.4
